Entries and their measured apparent KD of MS2 coat protein follow.
System: MS2 coat protein
ASSAY_PROTOCOL: apparent KD of MS2 coat protein; designed switch direction (-1 OFF switch, 1 ON switch): -1; higher = weaker reporter binding
SETTINGS: input ligand: none

Some sequences with recorded apparent KD of MS2 coat protein:
MS2 coat protein assay, sequence CCGGCAUGGUGCGGUAGUUGUACAACAUGAGGAUCACCCAUGUAGGAUAUGCGCGUGGUCACGCCGCAGAAGGACAACGUAUGG [Random, 25% A] (Eterna round: R96, puzzle: Exclusion NG 3) , recorded apparent KD of MS2 coat protein = 96 nM

MS2 coat protein assay, sequence UUAACCAGAGGAUAUGCGAAUAAAUAAAACUUUUUUUUUUAACAUGAGGAUCACCCAUGUAGAAGGCUGCAUUU [Ex2 #30] (Eterna round: R97, puzzle: Exclusion 2) , recorded apparent KD of MS2 coat protein = 25.1 nM

MS2 coat protein assay, sequence UGUUGUUACGCAGGAUAUGAGGAUCACCCAUAUCAGGAUAUCGAAAGAGAAUUUCUGAGGAUCACCCAGAAGGGCGGGUUAACA [pwkr exNG2 2xF5 2xFMN.37] (Eterna round: R96, puzzle: Exclusion NG 2) , recorded apparent KD of MS2 coat protein = 47.7 nM

MS2 coat protein assay, sequence AGUAGUUGUUUCCGUUCUUACAUGAGGAUCACCCAUGUUUCUUGUCGUGCUCGCGUUGCUCGUCAGACUUCCUGUUG [salish99_TOv1_r3_063] (Eterna round: R96, puzzle: Sensor v3, turn-off variant 1) , recorded apparent KD of MS2 coat protein = 76.6 nM

Note: attention shifts to another entry.
MS2 coat protein assay, sequence AAUGUCUGAGGAUAUCGUUUUUUGUACAUGAGGAUCACCCAUGUCCAAUUUUGUAUAUUACGAGAAGGCAGUGGAA [JR_E5_Sub089] (Eterna round: R96, puzzle: Exclusion 5) , recorded apparent KD of MS2 coat protein = 15 nM

====

Tested on: MS2 coat protein
ASSAY_PROTOCOL: apparent KD of MS2 coat protein; higher = weaker reporter binding
SETTINGS: Eterna round: R107; input ligand: theophylline 20 uM
Entries and their measured apparent KD of MS2 coat protein follow.
Express your answer in nM, writing the number without its unit.

Item: GGCACAUAGUCGGCCGCCACUAGAAUAAGAUGGAAUAACAUGAGGAUCACCCAUGUAAAAGGGACUAGGACCGGGACUAUGUGCC [Goat] | apparent KD of MS2 coat protein: 15.7

Item: CGCUACAUAGCGGCCGCCACUGUCAUGGCUACGAUAGGUCACUCGUACAUGAGGAUCACCCAUGUCAGGACCGGGCUAUCCUCGC [theeternabot_exclusion_MS2_Trp_B_20] | apparent KD of MS2 coat protein: 112

Item: AAACGCCACGGAAGGAGCGACAUGAGGAUCACCCAUGUAGAAGUGGCGGAUGCACCCUCCUGUCAGGUAGGUCGCCGUGCGCCAA [XArg-B24] | apparent KD of MS2 coat protein: 39

Item: AGAGUCUAGUCGGCCGCCACUCAUGUCCAAUGGACAUGAGGAUCACCCAUGUACCAAAGGUACAUGAGGACCGGGACUGGACUCA [Omei Tryp B SS C v4] | apparent KD of MS2 coat protein: 209

Item: GACGAUAUGAUACGUCAGCAAUCCUCGAAACGAGGACCGGUACGGCCGCCACUCGAGUGAUACACAUGAGGAUCACCCAUGUACC [Tryp A Ex t3] | apparent KD of MS2 coat protein: 49.6

Note: attention shifts to another entry.
Item: GGGCCCGGGCGCGAGCCCGGGCCCAUUGAUACCAGUGAUAUAUGACGCCCUUGGCAGCGAAUCCUAACAUGAGGAUCACCCAUGU [5.H] | apparent KD of MS2 coat protein: 58.9

====

Test system: MS2 coat protein
ASSAY_PROTOCOL: apparent KD of MS2 coat protein; designed switch direction (-1 OFF switch, 1 ON switch): 1; higher = weaker reporter binding
SETTINGS: input ligand: microRNA oligo, concentration not stated
Entries and their measured apparent KD of MS2 coat protein follow.
Express your answer in nM, writing the number without its unit.

Item: GCUAGAAAUAAAGCCAACAUGAGGAUCACCCAUGUAUGUUGGCAGGAUAUCGUUUGCAAAGCAAACGAGAAGGGCUAAACUAGC [Mat - Same State NG 3 - JL Mod - D5] (Eterna round: R96, puzzle: Same State NG 3) | apparent KD of MS2 coat protein: 138

Item: UGCCUGAGUCGAGGAUAUUAUGGAUCCUCUAAUACAUGAGGAUCACCCAUGUAAUUAAUUAUACAUGAGAAGGCGACUCAGGCU [SSNG2/12-A1] (Eterna round: R96, puzzle: Same State NG 2) | apparent KD of MS2 coat protein: 22.3

Item: GGAGCCGGCCUAGGAUAUUUCAUUAUUAAACAUGAGGAUCACCCAUGUAGGCCAGAAGGCCUUGGGAAGAAGGAGGUCGGCUCC [Loop Effect - U24,U26,U28] (Eterna round: R96, puzzle: Same State NG 2) | apparent KD of MS2 coat protein: 49.6

Note: attention shifts to another entry.
Item: ACAUAGGUUUCAGGAUAUGGGUAAAUUCCCUACAUGAGGAUCACCCAUGUCCGUAGGGAUAACAUCCAGAAGGGAAGCCACAUA [MOD3 Eternabot Solution 1 (Score 87.5)] (Eterna round: R96, puzzle: Same State NG 2) | apparent KD of MS2 coat protein: 144

====

Entries and their measured apparent KD of MS2 coat protein follow.
System: MS2 coat protein
ASSAY_PROTOCOL: apparent KD of MS2 coat protein; designed switch direction (-1 OFF switch, 1 ON switch): 1; higher = weaker reporter binding
SETTINGS: Eterna round: R95; input ligand: none
Express your answer in nM, writing the number without its unit.

Item: AUAAGGCAAGCUUUUUUCUCGUAGUAUAAACAUGAGGAUCACCCAUGUGCCUACCCUGGAUCUUUGGAUCGCAGAAA [Ravebiat] (puzzle: Sensor for hsa-mir-208a) | apparent KD of MS2 coat protein: 28.3

Item: GGUCCAGCCUGAGCUGGACUAUAGUAUGUACAUGAGGAUCACCCAUGUCAUGUAUAAGUAUGUUGUUUGUCUUGAAA [Sensorship 4 - Jieux - Sensor for hsa-mir-208a] (puzzle: Sensor for hsa-mir-208a) | apparent KD of MS2 coat protein: 24.2

Item: UAUAAACAUGAGGAUCACCCAUGUAAUAAUAUGGGAGGAUAUCAGAAUGUAUUUAUUUAAUGAGAAGGCCUAAUAU [Mat - Same State 1 - Mod of Eli - D68] (puzzle: Same State 1) | apparent KD of MS2 coat protein: 645

Item: GAGUAGGACUUACAGGAUAUAUGGAGGUUGACAUGAGGAUCACCCAUGUCUGAGUUGGGAGGAGGAUAGAAGGGUAUGAGAGGCG [JR_SS2_Sub031] (puzzle: Same State 2) | apparent KD of MS2 coat protein: 22.8

Item: AGAGAACAUGAGGAUCACCCAUGUAGGAUGGGCAUAGGAUAUAGAAGGAUGAGGGAGAAACUAGAAGGAUGAUGGA [JR_SS1_Sub077] (puzzle: Same State 1) | apparent KD of MS2 coat protein: 278

Item: AGCGAGAUAGGCAAGGAUAUGCUGGGUUGCACAUGAGGAUCACCCAUGUCAUUGGUUAUGGCCGAGCAGAAGGUGCAUUCUCUUU [ak bound state near shape] (puzzle: Same State 2) | apparent KD of MS2 coat protein: 66.5

Item: GUGGCCUAGGCACAGGAUAUGUUUCUCGUAACAUGAGGAUCACCCAUGUGCCUUUGAGAUUUUAUGCAGAAGGGUGCACGCCACG [JL Atiinbe mod 04] (puzzle: Same State 2) | apparent KD of MS2 coat protein: 491

Item: CGAUCAUACUCAGGACGGAGAGUAGAGGAACAUGAGGAUCACCCAUGUAUGAGCUUUUUGCUCGUCAUGAACAGGAG [JR_SHM208a_Sub010] (puzzle: Sensor for hsa-mir-208a) | apparent KD of MS2 coat protein: 121

Further cases:
Item: CUCAAAACAAGUUGCAGUGUUCGUCUUUCACAUGAGGAUCACCCAUGUAAUAGCCCAGUGGAAGCGCUCGGGCCACC [Ditixe] (puzzle: Sensor for hsa-mir-208a) | apparent KD of MS2 coat protein: 47.4

Item: ACGCAGCUGGGUGAGGAUAUCGGUGGUAAAACAUGAGGAUCACCCAUGUCCGAAGCUCGGACUUCCGAGAAGGCGCCCGGCUGCG [Soinraesar] (puzzle: Same State 2) | apparent KD of MS2 coat protein: 103

====

Tested on: MS2 coat protein
ASSAY_PROTOCOL: apparent KD of MS2 coat protein; designed switch direction (-1 OFF switch, 1 ON switch): -1; higher = weaker reporter binding
SETTINGS: input ligand: FMN 200 uM
Entries and their measured apparent KD of MS2 coat protein follow.
Answer format: number, then unit.

Some sequences with recorded apparent KD of MS2 coat protein:
Item: AGAGAAAAUCUAGGAUAUGUGUAUGCCGCGUGCGCAGAAGGAGACAUGAGGAUCACCCAUGUAAAGAGACAGAAGACGACCAAA [Matt's Exclusion] (Eterna round: R96, puzzle: Exclusion NG 1) | apparent KD of MS2 coat protein: 55.7 nM

Item: CGUCCACUUGAGGAUCACCCAAGUUAGGAUAUCUCCCAGCUCGCAUGUGCGGUUGGUCAGAGAAGGAACCAGGG [Ravereed] (Eterna round: R97, puzzle: Exclusion 1) | apparent KD of MS2 coat protein: 49.5 nM

Item: UUUUACAGAGGAUAUGCGAAUAAAUAAAACUUUUUUUUUUAACAUGAGGAUCACCCAUGUAGAAGGCUGAUUUU [Ex2 #25] (Eterna round: R97, puzzle: Exclusion 2) | apparent KD of MS2 coat protein: 40 nM

Item: CGGUGACGGGUGAGGAUAUCGUGUUCGAAAGAACGUGAGAAGGCACAUGAGGAUCACCCAUGUGAUCCUCAUCG [Omei Ex4B A31] (Eterna round: R97, puzzle: Brourd's mod of Exclusion 4) | apparent KD of MS2 coat protein: 412 nM

Item: UCCCGAUACUAGGAUAUGAGUUCACAGGAACGAUCAGAAGGAGUUACAUGAGGAUCACCCAUGUGGGUGUAUUG [Eternabot (L1) Solution 37] (Eterna round: R97, puzzle: Exclusion 6) | apparent KD of MS2 coat protein: 120 nM

Item: CUGGACUGAGGAUAUUGUGCUGCUGACAUGAGGAUCACCCAUGUAUGUUAACUCGGCCGUCGAGAAGGCAGACAGG [BotMod 18 - Jieux - Exclusion 5] (Eterna round: R97, puzzle: Exclusion 5) | apparent KD of MS2 coat protein: 16.5 nM

Item: UAUUAGCAAGCGAGAUCUCACAUGAGGAUCACCCAUGUGCUCGUCUUAUAAGGUACUGUGACGAUAGUCACGGUACC [Mat - Sensor, turn-off var - Eli Mod - D38] (Eterna round: R97, puzzle: Sensor, turn-off variant 1) | apparent KD of MS2 coat protein: 15.3 nM

Item: UUUUUAUAUGAAGGAUAUACUUAACAUGAGGAUCACCCAUGUGGUGUUGUGAGUGAGUGAGUUUAGUAGAAGGUCAUUUCUUUU [JMF's solution 78] (Eterna round: R96, puzzle: Exclusion NG 2) | apparent KD of MS2 coat protein: 440 nM

Further cases:
Item: UUUGCAAGCUUAAGAUCCCACAUGAGGAUCACCCAUGUUGCUGCCGUGAGGUAGCAUUUAACUUAUGCUCGUCUUAU [JL TOV1 3.50] (Eterna round: R97, puzzle: Sensor, turn-off variant 1) | apparent KD of MS2 coat protein: 140 nM
